Target: TBK1 (Homo sapiens (Human), UniProt Q9UHD2)
Sequence (Q9UHD2 whole entry): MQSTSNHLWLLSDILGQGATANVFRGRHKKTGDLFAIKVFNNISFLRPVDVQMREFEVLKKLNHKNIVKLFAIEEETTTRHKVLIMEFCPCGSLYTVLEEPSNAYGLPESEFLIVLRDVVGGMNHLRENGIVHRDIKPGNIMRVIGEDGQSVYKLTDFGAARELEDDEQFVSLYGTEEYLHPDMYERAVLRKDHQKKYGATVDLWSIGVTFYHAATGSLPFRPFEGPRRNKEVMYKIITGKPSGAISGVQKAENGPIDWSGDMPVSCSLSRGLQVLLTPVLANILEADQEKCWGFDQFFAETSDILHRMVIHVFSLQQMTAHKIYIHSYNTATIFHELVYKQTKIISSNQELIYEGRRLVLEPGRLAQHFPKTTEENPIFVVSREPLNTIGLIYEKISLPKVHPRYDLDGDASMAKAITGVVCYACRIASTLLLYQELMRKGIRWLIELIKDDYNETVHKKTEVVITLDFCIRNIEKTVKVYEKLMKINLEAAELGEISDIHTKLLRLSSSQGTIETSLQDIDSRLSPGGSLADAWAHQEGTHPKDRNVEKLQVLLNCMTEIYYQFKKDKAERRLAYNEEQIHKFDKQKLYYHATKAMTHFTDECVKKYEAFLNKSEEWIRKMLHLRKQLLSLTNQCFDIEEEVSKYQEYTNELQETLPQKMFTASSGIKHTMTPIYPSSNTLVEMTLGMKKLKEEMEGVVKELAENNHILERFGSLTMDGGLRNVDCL
Experiment: TBK1 low ATP kinase assay (in vitro assay 1)
Format: biochemical
Details: in vitro assay 1, read-out: TBK1 low ATP kinase assay IC50
pIC50: −log10 of the molar value.
result_type: pIC50

P: CCNc1cc(-c2ccc3nc(Nc4cc(CN5CCN(C(=O)C6CC6)CC5)ccn4)[nH]c3c2)ncn1
Q: CCOc1nccc(-c2ccc3nc(Nc4cc(CN5CCN(C(=O)C6CC6)CC5)ccn4)[nH]c3c2)n1
R: Cc1noc(C)c1-c1cc(-c2ccc3nc(Nc4cc(CN5CCN(C(=O)OC(C)(C)C)CC5)ccn4)[nH]c3c2)ncn1
S: Cc1noc(-c2ccc3nc(Nc4cc(CN5CCN(C(=O)C(C)(C)C)CC5)ccn4)[nH]c3c2)n1
T: CC(c1ccnc(Nc2nc3ccc(-c4cc(N5CC(F)(F)C5)ncn4)cc3[nH]2)c1)N1CCN(C(=O)C2CC2)CC1 (single isomer, unassigned)
**Q:** Please rank these compounds by pIC50 in descending order. The reply should contain the labels ordered as requested.
**A:** T, P, Q, R, S

I: COc1c(Cl)ncnc1-c1ccc2nc(Nc3cc(CN4CCN(C(=O)OC(C)(C)C)CC4)ccn3)[nH]c2c1
II: CCOc1nccc(-c2ccc3nc(Nc4cc(C(C)N5CCN(C(=O)CC(F)(F)F)CC5)ccn4)[nH]c3c2)n1 (single isomer, unassigned) [Example 26.03.01.A]
**Q:** Look at I and II . Which one has the lower recorded pIC50 number? Mark your selection by writing its label.
**A:** I
(I: 6.96, II: 8.53)

P: CC(c1ccnc(Nc2nc3ccc(-c4cc(OCC(F)(F)F)ncn4)cc3[nH]2)c1)N1CCN(C(=O)C2(C(F)(F)F)CC2)CC1 (single isomer, unassigned)
Q: COc1cnc(Cl)nc1-c1ccc2nc(Nc3cc(CN4CCN(C(=O)OC(C)(C)C)CC4)ccn3)[nH]c2c1
**Q:** I'd appreciate it if you could identify which of P and Q has the greater pIC50. Mark your selection by writing its label.
**A:** P

---

Biological target: TBK1 (Homo sapiens (Human), UniProt Q9UHD2)
Test: TBK1 low ATP kinase assay (in vitro assay 1)
Type: biochemical
Settings: in vitro assay 1, read-out: TBK1 low ATP kinase assay IC50
result_type: IC50 (nM)

{"columns": ["compound", "IC50, nM"],
 "data": [
  ["O=C(CC(F)(F)F)N1CCN(Cc2ccnc(Nc3nc4ccc(-c5cc(OCC6CC6)ncn5)cc4[nH]3)c2)CC1", 4.5],
  ["O=C(C1CC1)N1CCN(Cc2ccnc(Nc3nc4ccc(-c5ncnc(NCC6CC6)c5F)cc4[nH]3)c2)CC1", 34.1],
  ["Cc1cc(CN2CCN(C(=O)CC(F)(F)F)CC2)cc(Nc2nc3ccc(-c4ccnc(C)n4)cc3[nH]2)n1", 63.1]
]}

P: CCOc1c(-c2cnn(CC)c2)ccc2nc(Nc3cc(CN4CCN(C(=O)CC(F)(F)F)CC4)ccn3)[nH]c12
Q: O=C(CC(F)(F)F)N1CCN(Cc2ccnc(Nc3nc4ccc(-c5cncnc5)cc4[nH]3)c2)CC1
**Q:** Look at P and Q . Which one has the lower recorded IC50 number? Mark your selection by writing its label.
**A:** P
(P: 132 nM, Q: 323 nM)

P: CCC(C)c1noc(-c2ccc3nc(Nc4cc(CN5CCN(C(=O)C6CC6)CC5)ccn4)[nH]c3c2)n1 (stereo not shown)
Q: Nc1cc(-c2ccc3nc(Nc4cc(CN5CCN(C(=O)C6CC6)CC5)ccn4)[nH]c3c2)ccn1
**Q:** I'd appreciate it if you could identify which of P and Q has the greater IC50. Mark your selection by writing its label.
**A:** P
(P: 685 nM, Q: 4.3 nM)

---

Molecular target: TBK1 (Homo sapiens (Human), UniProt Q9UHD2)
Test: TBK1 low ATP kinase assay (in vitro assay 1)
Assay type: biochemical
Conditions: in vitro assay 1, read-out: TBK1 low ATP kinase assay IC50
pIC50: −log10 of the molar value.
result_type: pIC50

See these solved cases before continuing.
{"columns": ["compound", "pIC50"],
 "data": [
  ["Cc1noc(-c2ccc3nc(Nc4cc(CN5CCN(C(=O)OC(C)(C)C)C[C@H]5C)ccn4)[nH]c3c2)n1 [Example 16.03.01]", 6.90],
  ["Cc1cc(CN2CCN(C(=O)C3CC3)CC2)cc(Nc2nc3ccc(-c4ccnc(C)n4)cc3[nH]2)n1 [Example 24.02.01]", 7.34],
  ["CN(C)c1cc(-c2ccc3nc(Nc4cc(CN5CCN(C(=O)CC(F)(F)F)CC5)ccn4)[nH]c3c2)ncn1 [Example 143.02]", 8.09],
  ["Cc1cc(-c2ccc3nc(Nc4cc(CN5CCN(C(=O)CC(F)(F)F)CC5)ccn4)[nH]c3c2)ccn1 [Example 01.03]", 7.27]
]}

I: COc1cc(-c2ccc3nc(Nc4cc(C(C)N5CCN(C(=O)CC(F)(F)F)CC5)ccn4)[nH]c3c2)ncn1 (single isomer, unassigned) [Example 34.03.01.A]
II: Cc1cc(-c2ccc3nc(Nc4cc(C(C)N5CCN(C(=O)C6CC6)CC5)ccn4)[nH]c3c2)ncn1 (single isomer, unassigned) [Example 30.03.03.A]
**Q:** I'd appreciate it if you could identify which of I and II has the greater pIC50. Mark your selection by writing its label.
**A:** II
(II: 8.51, I: 7.92)

---

Target: TBK1 (Homo sapiens (Human), UniProt Q9UHD2)
Experiment: TBK1 low ATP kinase assay (in vitro assay 1)
Type: biochemical
Settings: in vitro assay 1, read-out: TBK1 low ATP kinase assay IC50
result_type: IC50 (nM)

See these solved cases before continuing.
{"columns": ["molecule", "IC50 / nM"],
 "data": [
  ["CC(c1ccnc(Nc2nc3ccc(-c4ccncn4)cc3[nH]2)c1)N1CCN(C(=O)CC(F)(F)F)CC1 (racemic) [Example 23.04.03]", 2.47],
  ["CN(CC1CC1)c1cc(-c2ccc3nc(Nc4cc(CN5CCN(C(=O)CC(F)(F)F)CC5)ccn4)[nH]c3c2)ncn1", 19],
  ["Cc1noc(-c2ccc3nc(Nc4cc(CN5CCN(C(=O)CC6CC6)C[C@H]5C)ccn4)[nH]c3c2)n1", 67],
  ["Cc1nccc(-c2ccc3nc(Nc4cc(C(C)N5CCN(C(=O)C6CC6)CC5)ccn4)[nH]c3c2)n1 (single isomer, unassigned) [Example 24.05.04.A]", 6.67],
  ["CCN(CC)C(=O)N1CCN(Cc2ccnc(Nc3nc4ccc(-c5ncncc5OC)cc4[nH]3)c2)CC1", 26.9],
  ["CC(c1ccnc(Nc2nc3ccc(-c4ccnn4C)cc3[nH]2)c1)N1CCN(C(=O)CC(F)(F)F)CC1 (single isomer, unassigned)", 35],
  ["COCc1cc(-c2ccc3nc(Nc4cc(CN5CCN(C(=O)C6(C(F)(F)F)CC6)CC5)ccn4)[nH]c3c2)ncn1", 3.3],
  ["CSc1cc(-c2ccc3nc(Nc4cc(CN5CCN(C(=O)CC(F)(F)F)CC5)ccn4)[nH]c3c2)ncn1", 6.6]
]}

a: Cc1cc(-c2ccc3nc(Nc4cc(CN5CCN(C(=O)CC6CC6)CC5)ccn4)[nH]c3c2)ccn1
b: Cc1noc(-c2ccc3nc(Nc4cc(CN5CCN(C(=O)N6CCCC6)CC5)ccn4)[nH]c3c2)n1
**Q:** Look at a and b . Which one has the lower recorded IC50 number? Mark your selection by writing its label.
**A:** a

I: Cc1noc(-c2ccc3nc(Nc4cc(CN5C[C@@H](C)N(C(=O)C6CC6)C[C@@H]5C)ccn4)[nH]c3c2)n1
II: Cc1ncc(C)c(-c2ccc3nc(Nc4cc(CN5CCN(C(=O)CC(F)(F)F)CC5)ccn4)[nH]c3c2)n1
III: O=C(CC(F)(F)F)N1CCN(Cc2ccnc(Nc3nc4ccc(-c5cc(NCC6CC6)ncn5)cc4[nH]3)c2)CC1
**Q:** # ascending order, key=IC50 The reply should contain the labels ordered as requested.
**A:** III, I, II

---

Target: TBK1 (Homo sapiens (Human), UniProt Q9UHD2)
Test: TBK1 low ATP kinase assay (in vitro assay 1)
Type: biochemical
Settings: in vitro assay 1, read-out: TBK1 low ATP kinase assay IC50
result_type: IC50 (nM)

a: CC(c1ccnc(Nc2nc3ccc(-c4cnn(CC(F)F)c4)cc3[nH]2)c1)N1CCN(C(=O)C2CC2)CC1 (single isomer, unassigned)
b: COc1nccc(-c2ccc3nc(Nc4cc(CN5CCN(C(=O)C6CC6)CC5)cc(C(F)(F)F)n4)[nH]c3c2)n1
**Q:** I'd appreciate it if you could identify which of a and b has the greater IC50. Mark your selection by writing its label.
**A:** b
(b: 346 nM, a: 2 nM)

---

Biological target: TBK1 (Homo sapiens (Human))
Test: TBK1 low ATP kinase assay (in vitro assay 1)
Format: biochemical
Conditions: in vitro assay 1, read-out: TBK1 low ATP kinase assay IC50
result_type: IC50 (nM)

See these solved cases before continuing.
{"columns": ["compound", "IC50 / nM"],
 "data": [
  ["COc1cncc(-c2ccc3nc(Nc4cc(CN5CCN(C(=O)C6CC6)CC5)ccn4)[nH]c3c2)n1 [Example 48.01]", 193],
  ["COc1cnccc1-c1ccc2nc(Nc3cc(CN4CCN(C(=O)C5(C(F)(F)F)CC5)CC4)ccn3)[nH]c2c1 [Example 04.07]", 10]
]}

a: COc1cc(-c2ccc3nc(Nc4cc(CN5CCN(C(=O)C6CCC6)CC5)ccn4)[nH]c3c2)ccn1 [Example 02.04]
b: Cc1noc(-c2ccc3nc(Nc4cc(C(C)N5CCN(C(=O)C(C)(C)O)CC5)ccn4)[nH]c3c2)n1 (single isomer, unassigned) [Example 16.06.06]
c: CC(c1ccnc(Nc2nc3ccc(-c4cc(OCC(F)(F)C(F)(F)F)ncn4)cc3[nH]2)c1)N1CCN(C(=O)OC(C)(C)C)CC1 (single isomer, unassigned) [Example 166.01]
d: CC(c1ccnc(Nc2nc3ccc(-c4cnn(CC5CC5(F)F)c4)c(F)c3[nH]2)c1)N1CCN(C(=O)OC(C)(C)C)CC1 (single isomer, unassigned) [Example 86.01]
**Q:** # sort list by recorded IC50, greatest to least The reply should contain the labels ordered as requested.
**A:** c, b, a, d
(c: 300 nM, b: 73 nM, a: 43.4 nM, d: 11 nM)
